Known CC50 at 48 h of a selection of compounds
EXPERIMENT_SUMMARY: Cytotoxicity against human MT2 cells after 48 hrs
Type: cell-based
TEST_PARAMETERS: read-out: LD50
Just the number please, in µM, no unit attached.

COMPOUND	CC50 at 48 h (µM)
O=C(/C=C/c1ccc(O)c(O)c1)O[C@@H]1C[C@](O)(C(=O)O)C[C@@H](OC(=O)/C=C/c2ccc(O)c(O)c2)[C@H]1O	300

Let us examine a further case.
*Q* What measured CC50 at 48 h goes with O=C(/C=C/c1ccc(O)c(O)c1)O[C@@H](C(=O)O)[C@@H](OC(=O)/C=C/c1ccc(O)c(O)c1)C(=O)O [CICHORIC ACID] ?
*A* 700

* * *

TEST_TARGET: Human immunodeficiency virus type 1 integrase (Human immunodeficiency virus 1)
EXPERIMENT_SUMMARY: Inhibition of HIV1 integrase in presence of Mn2+
READOUT_NAME: pIC50
Kindly note that pIC50 refers to -log10 of the concentration in mol/L and answer with the value alone.

*Q* What measured pIC50 goes with O=C(O)/C=C/c1ccc(O)c(O)c1 ?
*A* 5.55

* * *

EXPERIMENT_SUMMARY: Cytotoxicity against human MT4 cells by MTT assay
Assay type: cell-based
Known CC50 of a selection of molecules
Just the number please, in µM, no unit attached.

Example entries begin here.
MOLECULE	OUTPUT_UNIT	CC50
O=C(O)/C=C/c1ccc(O)c(O)c1CC(=O)O	µM	44
O=C(O)/C=C/c1ccc(O)c2c1C1C(=O)c3cc(O)c(O)cc3C1O2 (racemic)	µM	23.3

Let us examine a further case.
*Q* What measured CC50 goes with O=C(O)/C=C/c1ccc(O)c(O)c1/C(=C/c1ccc(O)c(O)c1)C(=O)O ?
*A* 4.5

* * *

TEST_TARGET: Human immunodeficiency virus type 1 integrase (Human immunodeficiency virus 1, UniProt Q7ZJM1)
Sequence (Q7ZJM1 whole entry): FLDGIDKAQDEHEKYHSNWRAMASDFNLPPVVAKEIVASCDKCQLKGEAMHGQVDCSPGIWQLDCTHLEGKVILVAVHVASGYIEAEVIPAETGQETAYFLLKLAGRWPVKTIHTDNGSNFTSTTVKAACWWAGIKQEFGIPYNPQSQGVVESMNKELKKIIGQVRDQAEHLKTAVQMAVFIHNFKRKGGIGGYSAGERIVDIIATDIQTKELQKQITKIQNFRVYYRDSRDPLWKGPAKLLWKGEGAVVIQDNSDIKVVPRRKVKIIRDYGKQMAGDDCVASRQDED
EXPERIMENT_SUMMARY: Inhibition of HIV1 integrase catalyzed reactions
READOUT_NAME: IC50
Hi, when you answer, please include the unit after the number. Thanks!

*Q* What measured IC50 goes with O=C(/C=C/c1ccc(O)c(O)c1)O[C@@H]1C[C@](O)(C(=O)O)C[C@@H](OC(=O)/C=C/c2ccc(O)c(O)c2)[C@H]1O ?
*A* 0.64 µM

* * *

TEST_TARGET: Human immunodeficiency virus type 1 integrase (Human immunodeficiency virus 1, UniProt Q7ZJM1)
EXPERIMENT_SUMMARY: Inhibition of HIV1 integrase strand transfer activity
Known pIC50 of a selection of compounds
Kindly note that pIC50 refers to -log10 of the concentration in mol/L and answer with the value alone.

Example entries begin here.
COMPOUND	READOUT_NAME	OBSERVED_MEASUREMENT
O=C(O)/C=C/c1ccc(O)c(O)c1	pIC50	4.62
O=C(O)/C=C/c1ccc(O)c2c1C1C(=O)c3cc(O)c(O)cc3C1O2 (racemic)	pIC50	6.52

*Q* What measured pIC50 goes with O=C(O)/C=C/c1ccc(O)c(O)c1/C(=C/c1ccc(O)c(O)c1)C(=O)O ?
*A* 6.14

*Q* What measured pIC50 goes with O=C(O)/C=C/c1ccc(O)c(O)c1CC(=O)O ?
*A* 5.96

* * *

TEST_TARGET: Human immunodeficiency virus type 1 integrase (Human immunodeficiency virus 1, UniProt Q7ZJM1)
EXPERIMENT_SUMMARY: Inhibition of HIV1 integrase by overall integration assay
READOUT_NAME: IC50 (nM)
Just the number please, in nM, no unit attached.

Example entries begin here.
COMPOUND	OBSERVED_MEASUREMENT
O=C(O)/C=C/c1ccc(O)c(O)c1CC(=O)O	1340
O=C(O)/C=C/c1ccc(O)c(O)c1	2800

*Q* What measured IC50 goes with O=C(O)/C=C/c1ccc(O)c(O)c1/C(=C/c1ccc(O)c(O)c1)C(=O)O ?
*A* 560

*Q* What measured IC50 goes with O=C(O)/C=C/c1ccc(O)c2c1C1C(=O)c3cc(O)c(O)cc3C1O2 (racemic) ?
*A* 150
